Test system: WT (transient replicon assay, sgDVs-R2A, DENV 2/16681)
Construct: 16681 wild-type subgenomic reporter replicon sgDVs-R2A
Assay: microbe, parasite or virus in culture
Parameters: species or system Huh7-derived cells (sheet title cut off after 'Hu'); transient DENV-2 replicon assay, inhibition of wild-type replicon replication
Conditions: Dengue virus, Experimental series=1; wild-type replicon, replicate
experimentalReadout: pEC50
Remember the convention: pEC50 equals -log10 of concentration in molar.

Answer with reported pEC50 of C#CCCC1(CCn2cc(C(=O)C(Nc3cc(OC)cc(OCCOC)c3)c3ccc(Cl)cc3OC)c3cc(OC(F)(F)F)ccc32)N=N1 (stereo not shown)
7.19
